In this section, each of the compounds is paired with its reported ASMS ratio (%) n = 2.
EXPERIMENTAL TARGET: Bcl-2 protein (Recombinant Human Bcl-2 Protein) (Homo sapiens, UniProt P10415)
Construct: purchased Novus Biologicals NBP2-34889
Sequence (P10415 whole entry): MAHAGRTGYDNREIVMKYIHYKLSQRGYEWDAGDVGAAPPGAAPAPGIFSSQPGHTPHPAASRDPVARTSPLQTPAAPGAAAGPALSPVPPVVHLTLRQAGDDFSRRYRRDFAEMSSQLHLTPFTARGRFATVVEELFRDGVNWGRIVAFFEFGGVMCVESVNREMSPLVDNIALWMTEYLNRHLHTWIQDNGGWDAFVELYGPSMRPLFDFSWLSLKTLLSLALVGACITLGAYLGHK
ASSAY DETAILS: AS-MS evaluation of binding of the Example 4 mixture library (1200 compounds/well) to Bcl-2, ASMS ratio (%)
CONDITION DETAILS: AS-MS, Example 4 mixture library, Bcl-2, replicate n = 2
MEASURED PROPERTY: ASMS ratio (%) n = 2

COMPOUND STRUCTURE	EXPERIMENTAL TARGET	MEASURED PROPERTY	QUANTITATIVE RESULT
CCOc1cccc(C#Cc2cncc(C(=O)N3CCN(c4ccc(C(=O)NS(=O)(=O)c5ccc(NCCSc6ccccc6)c(C(F)(F)F)c5)cc4)CC3)c2)c1	Bcl-2 protein (Recombinant Human Bcl-2 Protein) (Homo sapiens, UniProt P10415)	ASMS ratio (%) n = 2	4.8
CCOc1cncc(C#Cc2cc(C(=O)N3CCN(c4ccc(C(=O)NS(=O)(=O)CCC(F)(F)F)nn4)CC3)cc(C(F)(F)F)c2)c1	Bcl-2 protein (Recombinant Human Bcl-2 Protein) (Homo sapiens, UniProt P10415)	ASMS ratio (%) n = 2	0.0
CCOc1cncc(-c2ccc(C(=O)N3CCN(c4ccc(C(=O)NS(=O)(=O)c5ccc(NCCSc6ccccc6)c(C(F)(F)F)c5)cc4)CC3)cc2F)c1	Bcl-2 protein (Recombinant Human Bcl-2 Protein) (Homo sapiens, UniProt P10415)	ASMS ratio (%) n = 2	−0.5
CCOc1cncc(-c2cc(CN3CCN(c4ccc(C(=O)NS(=O)(=O)CCC(F)(F)F)cc4)CC3)cc(OC(C)C)c2)c1	Bcl-2 protein (Recombinant Human Bcl-2 Protein) (Homo sapiens, UniProt P10415)	ASMS ratio (%) n = 2	0.0
CCOc1cccc(C#Cc2ccccc2CN2CCN(c3ccc(C(=O)NS(=O)(=O)c4ccc(NCCSc5ccccc5)c(C(F)(F)F)c4)nn3)CC2)c1	Bcl-2 protein (Recombinant Human Bcl-2 Protein) (Homo sapiens, UniProt P10415)	ASMS ratio (%) n = 2	5.5
CCOc1cncc(-c2cc(CN3CCN(c4ccc(C(=O)NS(=O)(=O)C(C)(C)C)nn4)CC3)cc(C(F)(F)F)c2)c1	Bcl-2 protein (Recombinant Human Bcl-2 Protein) (Homo sapiens, UniProt P10415)	ASMS ratio (%) n = 2	2.8

Reference for the values: patent US20250154686A1
